molecular target: T1, CD38 on the surface of Daudi cells (human, UniProt P28907 1-300); assay: flow cytometry, Daudi cells;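 note: purified antibodies incubated with Daudi cells for 1 h at 4 °C, bound antibody detected by fluorescent secondary antibody and read by flow cytometry as MFI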
T1 construct: whole, on cells

| BINDER | MEASURE UNIT | EC50 |
| --- | --- | --- |
| 25F12 (antibody, human IgG1, kappa, V domains shown, Rabbit-human chimeric anti-CD38: rabbit VH and VL on human IgG1 and kappa constant regions) VH: RSLEESGGRLVTPGTPLTLTCTTSGFSLSSYDMSWVRQAPGKGLEWIGYITYGGNIYYATWAKGRFTTSKTSTTVDLKITSPTTEDTATYFCARTLYTGGRYYFSLWGPGTLVTVSS VL: AQVLTQTPSSVSAVVGGTVTINCQSSQSIANSNEVAWYQQKLGQPPKLLIYDASTLASGVPSRFSGSGSGTQFTLIISGVQSDDAATYYCQGTVYDNVWYAAFGGGTEVVVKR | nM | 0.263 |
| 27F6 (antibody, human IgG1, kappa, V domains shown, Rabbit-human chimeric anti-CD38: rabbit VH and VL on human IgG1 and kappa constant regions) VH: QSLEESGGGLVKPGASLTLTCKASGFSFSSGCDMCWVRQAPGKGLEWISCIYTGSGSTYYANWAKGRFTISRTSSTTVTLQMTSLTAADTATYFCAGDSDYLGLWGPGTLVTVSS VL: DIVMTQTPSSVEAAVGGTVTIKCQASQNIGNYLAWYQQKPGQPPKVLIYRASTLASGVPSRFKGSGSGTHFTLTISDLESADAATYYCQSYYYTTDDNYRSWAFGGGTEVVVKR | nM | 0.298 |
| 18E4 (antibody, human IgG1, kappa, V domains shown, Rabbit-human chimeric anti-CD38: rabbit VH and VL on human IgG1 and kappa constant regions) VH: QSLEESGGDLVKPGASLTLTCTASGFSFNNYWICWIRQAPGKGLEWVACIYSPSGDIKYYANWAKGRFTVSKTSSTTVTLQMTSLTGADTATYFCARELSGSSYEGYFESWGPGTLVTVSS VL: AQVLTQTPSSVSAAVGGTVTINCQCSQSVYGHNWLAWYQHKPGQPPKLLMYRASNLASGVPSRFKGSGSGSQFTLTIGEVQSDDAATYYCQGYYNGGSYAFGGGTEVVVRR | nM | 0.9 |

These entries and their values trace back to patent US20220002432A1.
